The reported numbers originate from paper PMC8650031.

Measured reduction of [3H]-thymidine incorporation accompanies every entry in the list below.
Tested on: AGS cells
MEASUREMENT PROTOCOL: [3H]-thymidine incorporation (DNA biosynthesis), AGS
Type: cell-based, human
CONDITIONS USED: 50 μM, 48 h
API: value field is a number in %; no unit string.

COMPOUND	UNIT DESCRIPTOR	TEST RESULT
COc1ccc(-c2oc3cc(O)c(OC)c(O)c3c(=O)c2OC)cc1 [santin]	%	48.0
COc1cc2oc(-c3ccc(O)cc3)cc(=O)c2c(O)c1OC [cirsimaritin]	%	24.5
O=c1cc(-c2ccc(O)cc2)oc2cc(O)cc(O)c12 [apigenin, reference compound]	%	56.2

The record that follows has no reduction of [3H]-thymidine incorporation shown yet.
[Q] Which reduction of [3H]-thymidine incorporation is listed for COc1ccc(-c2oc3cc(O)cc(O)c3c(=O)c2OC)cc1 [ermanin] ?
[A] 28.2
